meta.source: ChEMBL document CHEMBL4265950

target: cGMP-specific 3',5'-cyclic phosphodiesterase (Homo sapiens, UniProt O76074); assay: Inhibition of full length recombinant human N-terminal GST-tagged PDE5A1 expressed in baculovirus infected sf9 cells using FAM-cyclic-3',5-GMP as substrate after 1 hr by fluorescence polarization assay
pIC50: −log10 of the molar value.
MEASUREMENT_LABEL: pIC50

Example molecules with recorded pIC50:
> print(dat)
                                   molecule                           target.of.assay  measurement
1  CCc1ccc([C@@H]2c3[nH]c4ccccc4c3C[C@@H]3C(=O)N(CC)C(=O)N23)o1  cGMP-specific 3',5'-cyclic phosphodiesterase (Homo sapiens, UniProt O76074)         8.07
2  CCc1ccc([C@H]2c3[nH]c4ccccc4c3C[C@H]3C(=O)N(CC)C(=O)N23)o1  cGMP-specific 3',5'-cyclic phosphodiesterase (Homo sapiens, UniProt O76074)         7.09
3  CCc1ccc([C@H]2c3[nH]c4ccccc4c3C[C@H]3C(=O)N(CC)C(=O)N23)s1  cGMP-specific 3',5'-cyclic phosphodiesterase (Homo sapiens, UniProt O76074)         6.42

A. CCN1C(=O)[C@@H]2Cc3c([nH]c4ccccc34)[C@@H](c3ccc(C)o3)N2C1=O
B. CCc1ccc(C2c3[nH]c4ccccc4c3C(=O)CN2c2ncc(-c3ccc(OC)c(OC)c3)cn2)o1 (stereo not given)
Could you determine which record has the numerically smaller pIC50? Candidates: A and B Indicate your choice by writing its label.
B
(B: 7.28, A: 7.98)

A. CCc1ccc([C@@H]2c3[nH]c4ccccc4c3C[C@@H]3C(=O)N(C)CC(=O)N23)o1
B. CCc1ccc([C@@H]2c3[nH]c4ccccc4c3C[C@H]3C(=O)N(CC)C(=O)N23)s1
Could you determine which record has the numerically smaller pIC50? Candidates: A and B Indicate your choice by writing its label.
A
(A: 7.90, B: 8.28)

---

target: cGMP-specific 3',5'-cyclic phosphodiesterase (Rattus norvegicus) (UniProt O54735); test: Inhibition of PDE5 in Wistar rat mesentric arteries assessed as inhibition of phenylephrine-induced contraction by measuring increase in acetylcholine-induced vasorelaxation by pressure myographic method
MEASUREMENT_LABEL: percent relaxation

> print(dat)
                            smiles.notation                           target.of.assay            measurement
1  CCN1C(=O)[C@@H]2Cc3c([nH]c4ccccc34)[C@@H](c3ccc(C)o3)N2C1=O  cGMP-specific 3',5'-cyclic phosphodiesterase (Rattus norvegicus) (UniProt O54735)  Dose-dependent effect
2  CCc1ccc([C@@H]2c3[nH]c4ccccc4c3C[C@@H]3C(=O)N(CC)C(=O)N23)s1  cGMP-specific 3',5'-cyclic phosphodiesterase (Rattus norvegicus) (UniProt O54735)  Dose-dependent effect
3  Cc1ccc([C@@H]2c3[nH]c4ccccc4c3C[C@@H]3C(=O)N(C)CC(=O)N23)s1  cGMP-specific 3',5'-cyclic phosphodiesterase (Rattus norvegicus) (UniProt O54735)  Dose-dependent effect
4  CN1CC(=O)N2[C@H](c3ccc(Br)s3)c3[nH]c4ccccc4c3C[C@@H]2C1=O  cGMP-specific 3',5'-cyclic phosphodiesterase (Rattus norvegicus) (UniProt O54735)  Dose-dependent effect
5  CCc1ccc([C@@H]2c3[nH]c4ccccc4c3C[C@@H]3C(=O)N(CC)C(=O)N23)o1  cGMP-specific 3',5'-cyclic phosphodiesterase (Rattus norvegicus) (UniProt O54735)  Dose-dependent effect

GET /values?readout=percent relaxation&item= CCc1ccc([C@@H]2c3[nH]c4ccccc4c3C[C@@H]3C(=O)N(C)CC(=O)N23)s1
Dose-dependent effect

GET /values?readout=percent relaxation&item= CCc1ccc([C@@H]2c3[nH]c4ccccc4c3C[C@H]3C(=O)N(CC)C(=O)N23)s1
Dose-dependent effect

GET /values?readout=percent relaxation&item= CCc1ccc([C@@H]2c3[nH]c4ccccc4c3C[C@H]3C(=O)N(CC)C(=O)N23)o1
Dose-dependent effect

GET /values?readout=percent relaxation&item= CCc1ccc([C@@H]2c3[nH]c4ccccc4c3C[C@@H]3C(=O)N(C)CC(=O)N23)o1
Dose-dependent effect

---

target: Cone cGMP-specific 3',5'-cyclic phosphodiesterase subunit alpha' (Homo sapiens, UniProt P51160); assay: Inhibition of full length recombinant human N-terminal GST-tagged PDE6C expressed in baculovirus infected sf9 cells using […] as substrate after 1 hr by fluorescence polarization assay
Sequence (P51160 whole entry): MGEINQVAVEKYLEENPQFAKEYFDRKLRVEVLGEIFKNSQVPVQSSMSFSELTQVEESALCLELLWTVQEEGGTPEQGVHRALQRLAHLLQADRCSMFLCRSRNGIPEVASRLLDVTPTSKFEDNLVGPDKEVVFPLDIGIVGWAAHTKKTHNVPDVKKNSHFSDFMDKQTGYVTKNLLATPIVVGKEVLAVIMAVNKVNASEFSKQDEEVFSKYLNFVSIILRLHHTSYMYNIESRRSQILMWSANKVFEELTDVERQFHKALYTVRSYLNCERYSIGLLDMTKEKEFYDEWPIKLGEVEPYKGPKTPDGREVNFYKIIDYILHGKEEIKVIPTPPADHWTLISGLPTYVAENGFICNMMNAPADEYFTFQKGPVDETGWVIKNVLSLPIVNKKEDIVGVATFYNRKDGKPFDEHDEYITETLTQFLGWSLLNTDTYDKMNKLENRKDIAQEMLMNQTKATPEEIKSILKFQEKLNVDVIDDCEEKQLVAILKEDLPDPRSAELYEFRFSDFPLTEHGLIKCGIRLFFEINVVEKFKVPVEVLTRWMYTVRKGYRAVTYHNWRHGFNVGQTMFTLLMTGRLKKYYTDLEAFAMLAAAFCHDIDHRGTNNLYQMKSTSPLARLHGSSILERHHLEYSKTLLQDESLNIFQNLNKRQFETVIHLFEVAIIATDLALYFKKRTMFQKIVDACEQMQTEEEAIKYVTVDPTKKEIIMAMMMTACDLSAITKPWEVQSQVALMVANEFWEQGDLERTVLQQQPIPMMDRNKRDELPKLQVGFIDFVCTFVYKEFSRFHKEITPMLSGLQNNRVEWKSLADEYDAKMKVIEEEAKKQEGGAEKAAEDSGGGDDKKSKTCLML
pIC50: −log10 of the molar value.
MEASUREMENT_LABEL: pIC50

Example molecules with recorded pIC50:
> print(dat)
                                   molecule  measurement
1  CCc1ccc([C@@H]2c3[nH]c4ccccc4c3C[C@H]3C(=O)N(CC)C(=O)N23)s1         7.25
2  CCc1ccc([C@@H]2c3[nH]c4ccccc4c3C[C@H]3C(=O)N(CC)C(=O)N23)o1         6.90
3  CCc1ccc([C@H]2c3[nH]c4ccccc4c3C[C@@H]3C(=O)N(CC)C(=O)N23)o1         8.00
4  CN1CC(=O)N2[C@H](c3ccc(Br)s3)c3[nH]c4ccccc4c3C[C@@H]2C1=O         6.87

a. CCN1C(=O)[C@@H]2Cc3c([nH]c4ccccc34)[C@@H](c3sccc3C)N2C1=O
b. CCc1ccc(C2c3[nH]c4ccccc4c3C(=O)CN2c2ncc(-c3ccc(OC)c(OC)c3)cn2)s1 (centres undefined)
Could you determine which record has the numerically smaller pIC50? Candidates: a and b Indicate your choice by writing its label.
b

---

molecular target: Dual 3',5'-cyclic-AMP and -GMP phosphodiesterase 11A (Homo sapiens); assay: Inhibition of full length recombinant human N-terminal GST-tagged PDE11A4 expressed in baculovirus infected sf9 cells using FAM-cyclic-3',5-AMP as substrate after 1 hr by fluorescence polarization assay
MEASUREMENT_LABEL: IC50

> print(dat)
                            smiles.notation  measurement.label  measurement
1  CCc1ccc([C@H]2c3[nH]c4ccccc4c3C[C@H]3C(=O)N(C)CC(=O)N23)s1               IC50    > 1000 nM
2  CCc1ccc([C@@H]2c3[nH]c4ccccc4c3C[C@H]3C(=O)N(CC)C(=O)N23)o1               IC50    > 1000 nM

Would you kindly look at the next entry?
GET /values?readout=IC50&item= CCc1ccc([C@@H]2c3[nH]c4ccccc4c3C[C@H]3C(=O)N(CC)C(=O)N23)s1
> 1000 nM

---

species on record: Homo sapiens; test: Selectivity index, ratio of IC50 for inhibition of full length recombinant human N-terminal GST-tagged PDE11A4 expressed in baculovirus infected sf9 cells to IC50 for inhibition of full length recombinant human N-terminal GST-tagged PDE5A1 expressed in baculovirus infected sf9 cells
Measured Ratio IC50 of individual entries
Give the figure only, with no unit attached.

> print(dat)
                                   compound  measurement
1  CCc1ccc([C@H]2c3[nH]c4ccccc4c3C[C@@H]3C(=O)N(CC)C(=O)N23)o1           29
2  CCc1ccc([C@@H]2c3[nH]c4ccccc4c3C[C@@H]3C(=O)N(CC)C(=O)N23)o1           12
3  CCN1C(=O)[C@@H]2Cc3c([nH]c4ccccc34)[C@@H](c3ccc(C)o3)N2C1=O          0.4
4  CN1CC(=O)N2[C@H](c3ccc(Br)s3)c3[nH]c4ccccc4c3C[C@@H]2C1=O           30
5  CCN1C(=O)[C@@H]2Cc3c([nH]c4ccccc34)[C@@H](c3sccc3C)N2C1=O            7

GET /values?readout=Ratio IC50&item= CCCCN1C(=O)[C@H]2Cc3c([nH]c4ccccc34)[C@@H](c3ccc(CC)s3)N2C1=O
10

GET /values?readout=Ratio IC50&item= CCc1ccc(C2c3[nH]c4ccccc4c3C(=O)CN2c2ncc(-c3ccc(OC)c(OC)c3)cn2)s1 (stereo unspecified)
4

GET /values?readout=Ratio IC50&item= Cc1ccc([C@@H]2c3[nH]c4ccccc4c3C[C@@H]3C(=O)N(C)CC(=O)N23)s1
20

GET /values?readout=Ratio IC50&item= CCc1ccc([C@@H]2c3[nH]c4ccccc4c3C[C@@H]3C(=O)N(C)CC(=O)N23)o1
9

---

species on record: Homo sapiens; test: Selectivity index, ratio of IC50 for inhibition of full length recombinant human N-terminal GST-tagged PDE6C expressed in baculovirus infected sf9 cells to IC50 for inhibition of full length recombinant human N-terminal GST-tagged PDE5A1 expressed in baculovirus infected sf9 cells
MEASUREMENT_LABEL: Ratio IC50
Give the figure only, with no unit attached.

Example compounds with recorded Ratio IC50:
> print(dat)
                                   compound  measurement.label  measurement
1  CCc1ccc(C2c3[nH]c4ccccc4c3C(=O)CN2c2ncc(-c3ccc(OC)c(OC)c3)cn2)s1 (stereo unspecified)         Ratio IC50            6
2  CN1CC(=O)N2[C@H](c3ccc(Br)s3)c3[nH]c4ccccc4c3C[C@@H]2C1=O         Ratio IC50           19

GET /values?readout=Ratio IC50&item= CCc1ccc([C@@H]2c3[nH]c4ccccc4c3C[C@H]3C(=O)N(CC)C(=O)N23)o1
43

GET /values?readout=Ratio IC50&item= CCCCN1C(=O)[C@@H]2Cc3c([nH]c4ccccc34)[C@@H](c3ccc(CC)s3)N2C1=O
4

GET /values?readout=Ratio IC50&item= CCc1ccc(C2c3[nH]c4ccccc4c3C(=O)CN2c2ncc(-c3ccc(OC)c(OC)c3)cn2)o1 (stereo unspecified)
5

GET /values?readout=Ratio IC50&item= CCN1C(=O)[C@@H]2Cc3c([nH]c4ccccc34)[C@@H](c3sccc3C)N2C1=O
0.6

GET /values?readout=Ratio IC50&item= CCc1ccc([C@H]2c3[nH]c4ccccc4c3C[C@@H]3C(=O)N(CC)C(=O)N23)o1
0.4

GET /values?readout=Ratio IC50&item= CCc1ccc([C@@H]2c3[nH]c4ccccc4c3C[C@H]3C(=O)N(CC)C(=O)N23)s1
11

GET /values?readout=Ratio IC50&item= CCN1C(=O)[C@@H]2Cc3c([nH]c4ccccc34)[C@@H](c3ccc(C)o3)N2C1=O
6
